# System: rabbit vWF A1 domain (SEQ ID NO 6)
# Sequence (as listed by the source): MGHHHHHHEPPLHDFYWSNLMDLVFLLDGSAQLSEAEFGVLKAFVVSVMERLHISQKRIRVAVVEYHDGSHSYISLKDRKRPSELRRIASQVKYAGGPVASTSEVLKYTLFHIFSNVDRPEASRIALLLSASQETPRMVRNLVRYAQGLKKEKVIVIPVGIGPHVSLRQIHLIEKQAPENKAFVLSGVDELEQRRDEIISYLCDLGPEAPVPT
# Experiment notes: 3-point dot blot screen, rabbit vWF A1 domain
# Type: binding
# Stated conditions: 3-point dot blot screen, 20 nM rabbit vWF A1 domain; ratio of fraction of aptamer bound with target protein to fraction bound without protein
Value type: Screen Rabbit/No Protein
Give the figure by itself; no unit, no explanation.

{"Molecule": "AMX236.H1: DNA SELEX 2 aptamer clone (nucleic acid, DNA, backbone not given here, DNA SELEX 2 aptamer clone) CTACCTACGATCTGACTAGCCTCAGATTGACTCCGGCCGACTTGTTTTAATCTTCTGAGTGCTTACTCTCATGTAGTTCC", "Screen Rabbit/No Protein": 1.14}

Proceeding to the next molecule to report its Screen Rabbit/No Protein.
Ask: State, in one line, measured Screen Rabbit/No Protein of AMX237.D5: DNA SELEX 2 aptamer clone (nucleic acid, DNA, backbone not given here, DNA SELEX 2 aptamer clone) DNA: CTACCTACGATCTGACTAGCTTGGTAGCGACACTGTGGAGCTGCGGTTTGGTTGACGTCAGCTTACTCTCATGTAGTTCC
Result: 1.48

// provenance: patent US7998940B2
